# assay details: GFP drop in mixed WT/humanized-ribosome E. coli culture – GFP/RFP fluorescence, OD600, single point, bacterial rRNA inhibitor project, primary screen (AID 720706)
# protocol conditions: E. coli WT GFP vs humanized-ribosome RFP mutants, 24 h; active compounds read low, DMSO median 0, no signal -100
Among all 350,000 compounds or so, about 5,500 (1.6%) were called active. The full list was thinned out, with actives kept by preference.
Recorded GFP signal change (wild-type ribosome) values for a group of compounds are listed next.

Study these solved cases before continuing.
O=C(c1ccccn1)N1CC(=O)N2[C@H](CO)[C@H](c3ccc(C#CCc4ccccc4)cc3)[C@H]2C1
1.93% (inactive)
Cc1[nH]n(C)c(=O)c1C(=O)c1c(-c2c(Cl)cccc2Cl)noc1C
23.4% (inactive)
COc1ccc(C2/C(=C(/O)c3ccccc3)C(=O)C(=O)N2C)c(OC)c1 (stereo unspecified)
-2.38% (inactive)
CCCC(=O)Nc1ccc2c(c1)C(=O)N(C)[C@@H]1CC[C@H](CC(=O)NCCOC)O[C@H]1CO2
3.48% (inactive)
Cc1ncoc1C(=O)NCCC(c1ccccc1)c1ccccc1
-22.1% (active)
COCCNc1nc(-c2ccccc2)nc2c1oc1ccccc12
-38% (inactive)

Consider the compound COc1ccc(/C=C/C(=O)Nc2cccnc2)cc1OC . State its measured GFP signal change (wild-type ribosome).
-20.8% (active)

Consider the compound O=C(COC(=O)C1CCCO1)Nc1nc(-c2ccc(F)cc2)cs1 (stereo unspecified) . State its measured GFP signal change (wild-type ribosome).
-5.81% (inactive)

Consider the compound Cn1cnc(CCNC(=O)C[C@@H]2CC[C@H]3[C@@H](COC[C@@H](O)CN3C(=O)Nc3ccc(Cl)cc3)O2)c1 . State its measured GFP signal change (wild-type ribosome).
-23.1% (inactive)

Consider the compound COc1ccc(/C=C/C(=O)Nc2ccc(C34CC5CC(CC(O)(C5)C3)C4)cc2)cc1OC . State its measured GFP signal change (wild-type ribosome).
-3.43% (inactive)

Consider the compound CCOc1ccc(/C(O)=C2\C(=O)C(=O)N(c3ccc(OC)cc3)C2c2ccccc2[N+](=O)[O-])cc1 (stereo unspecified) . State its measured GFP signal change (wild-type ribosome).
-20.6% (active)

###

Recorded GFP signal change (wild-type ribosome) values for a group of compounds are listed next.
# assay details: GFP drop in mixed WT/humanized-ribosome E. coli culture – GFP/RFP fluorescence, OD600, single point, bacterial rRNA inhibitor project, primary screen (AID 720706)
# protocol conditions: E. coli WT GFP vs humanized-ribosome RFP mutants, 24 h; active compounds read low, DMSO median 0, no signal -100
In all, about 350,000 compounds went through this assay and about 5,500 (1.6%) were called active. The sample holds actives, similar compounds and a random draw of the others, so the mix is not that of the screen.
Give the quantity in %, number only.

Study these solved cases before continuing.
COc1ccc2c3c(n(C)c2c1)[C@H](CO)N(C(=O)c1ccc(F)cc1)CC31CCN(C(C)=O)CC1
-0.941
COc1ccc(CN(C)C[C@H]2Oc3ccc(NS(=O)(=O)c4ccc(Cl)cc4)cc3CC(=O)N([C@@H](C)CO)C[C@H]2C)cc1
-45.9
C[C@H](CO)N1C[C@H](C)[C@@H](CN(C)Cc2ccccc2)Oc2c(NC(=O)CCCCCC(=O)Nc3ccccc3N)cccc2C1=O
-10

As a next step, examine the compound that follows.
Consider the compound CCCS(=O)(=O)N1CCC(CCOc2ccccc2)(C(=O)OCC)CC1 . State its measured GFP signal change (wild-type ribosome).
-17.9
